From: patent US11504441B2

Experiment: in vivo
Set-up: species or system mice
Conditions: male, NODSCID 1L2RγKO, mouse, iv, total radioactivity, Testes uptake
Label Met when tissue uptake at 24 h is at or above 0.7 %ID/g; otherwise label Not met.

Recorded results for 3 molecules are shown here.
COc1ccc(CCCC(=O)NCC(=O)N[C@@H](CCCCNC(=O)CN2CCN(CC(=O)O)CCN(CC(=O)O)CCN(CC(=O)O)CC2)C(=O)NC[C@H]2CC[C@H](C(=O)N[C@@H](Cc3c4ccccc4cc4ccccc34)C(=O)NCCCC[C@H](NC(=O)N[C@@H](COCC(=O)O)C(=O)O)C(=O)O)CC2)cc1 [177Lu-HTK04028, metal not drawn] ... Not met
COc1ccc(CCCC(=O)NCC(=O)N[C@@H](CCCCNC(=O)CN2CCN(CC(=O)O)CCN(CC(=O)O)CCN(CC(=O)O)CC2)C(=O)NC[C@H]2CC[C@H](C(=O)N[C@@H](Cc3c4ccccc4cc4ccccc34)C(=O)NCCCC[C@H](NC(=O)N[C@@H](CCCC(=O)O)C(=O)O)C(=O)O)CC2)cc1 [177Lu-HTK03170, metal not drawn] ... Not met
O=C(O)CCC[C@H](NC(=O)N[C@@H](CCCCNC(=O)[C@H](Cc1c2ccccc2cc2ccccc12)NC(=O)[C@H]1CC[C@H](CNC(=O)CN2CCN(CC(=O)O)CCN(CC(=O)O)CCN(CC(=O)O)CC2)CC1)C(=O)O)C(=O)O [177Lu-HTK03149, metal not drawn] ... Not met

[Q] Does the reported tissue uptake at 24 h for O=C(O)CCC[C@H](NC(=O)N[C@@H](CCCCNC(=O)[C@H](Cc1c2ccccc2cc2ccccc12)NC(=O)[C@H]1CC[C@H](CNC(=O)[C@H](CCCCNC(=O)CN2CCN(CC(=O)O)CCN(CC(=O)O)CCN(CC(=O)O)CC2)NC(=O)CNC(=O)CCCc2ccc(Cl)cc2)CC1)C(=O)O)C(=O)O [177Lu-HTK03153, metal not drawn] fall at or above the 0.7 %ID/g mark?
[A] Met

[Q] Does the reported tissue uptake at 24 h for COc1ccc(CCCC(=O)NCC(=O)N[C@@H](CCCCNC(=O)CN2CCN(CC(=O)O)CCN(CC(=O)O)CCN(CC(=O)O)CC2)C(=O)NC[C@H]2CC[C@H](C(=O)N[C@@H](Cc3c4ccccc4cc4ccccc34)C(=O)NCCCC[C@H](NC(=O)N[C@@H](CSCC(=O)O)C(=O)O)C(=O)O)CC2)cc1 [177Lu-HTK04048, metal not drawn] fall at or above the 0.7 %ID/g mark?
[A] Met
